# Test system: ATP;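 also: ATP exposure 15 min at 22 °C before imaging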
# Assay overview: switch fluorescence ratio, 500 uM ATP over buffer (Cy3 cluster intensity, sum of 5 cycles each) (fold (ratio)); higher = stronger signal-on switching upon ATP binding; sequences stand for … in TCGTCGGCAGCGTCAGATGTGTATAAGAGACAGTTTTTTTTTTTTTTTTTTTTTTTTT…TC
# Protocol conditions: aptamer strand: ATP DNA aptamer (quencher-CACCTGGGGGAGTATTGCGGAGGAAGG + anchor), 100 nM annealed; ATP concentration: 500 uM
Listed sequences paired with reported switch fluorescence ratio
Measured endpoint: switch fluorescence ratio

Construct sequence: GCTGGTGTGG
Quantitative readout: 0.995
--
Construct sequence: GGTAGGCCTG
Quantitative readout: 0.989
--
Construct sequence: AGAAATACGG
Quantitative readout: 1.21
--
Construct sequence: TAAAGCTTTT
Quantitative readout: 1.09
--
Construct sequence: TTGGCTTTGG
Quantitative readout: 0.967
--
Construct sequence: TAGTATGGTA
Quantitative readout: 1.01
--
Construct sequence: CGTCGGCAAA
Quantitative readout: 3.42
--
Construct sequence: TTAGTGGCTA
Quantitative readout: 1.02
--
Construct sequence: CGTTGACGCG
Quantitative readout: 1.02
--
Construct sequence: GGGAGAAGGG
Quantitative readout: 0.95
--
Construct sequence: TTGTTTTTGC
Quantitative readout: 0.996
--
Construct sequence: TTGGCATGTC
Quantitative readout: 1.06
--
Construct sequence: GGTTTAGTGA
Quantitative readout: 0.998
--
Construct sequence: GAGATGCGAG
Quantitative readout: 0.963
--
Construct sequence: GGAACGTGAG
Quantitative readout: 1.01
--
Construct sequence: CTTATTGTAG
Quantitative readout: 0.964
--
Construct sequence: ACGATAACTT
Quantitative readout: 1.21
--
Construct sequence: TTAGAAGTTT
Quantitative readout: 1.01
--
Construct sequence: AATTAGCTGC
Quantitative readout: 1.04
--
Construct sequence: TGATGAGGAA
Quantitative readout: 0.977

###

# Test system: ATP;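 also: ATP exposure 15 min at 22 °C before imaging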
# Assay overview: switch fluorescence ratio, 500 uM ATP over buffer (Cy3 cluster intensity, sum of 5 cycles each) (fold (ratio)); higher = stronger signal-on switching upon ATP binding; sequences stand for … in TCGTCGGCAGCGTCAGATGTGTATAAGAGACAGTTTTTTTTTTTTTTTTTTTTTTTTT…TC
# Protocol conditions: aptamer strand: ATP DNA aptamer (quencher-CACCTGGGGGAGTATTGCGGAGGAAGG + anchor), 100 nM annealed; ATP concentration: 500 uM
Listed sequences paired with reported switch fluorescence ratio
Measured endpoint: switch fluorescence ratio

Construct sequence: AGGAGTCGGT
Quantitative readout: 1.01
//
Construct sequence: CGTTGGTGTG
Quantitative readout: 1
//
Construct sequence: GATTTTTGTT
Quantitative readout: 1.01
//
Construct sequence: GGTTTATATT
Quantitative readout: 1.01
//
Construct sequence: GGTGGGCGGA
Quantitative readout: 1.01
//
Construct sequence: GTGATAAGAC
Quantitative readout: 1.04
//
Construct sequence: GGTTCTACAT
Quantitative readout: 0.998
//
Construct sequence: CGATTCGGGG
Quantitative readout: 1.01
//
Construct sequence: AGGGACGGAG
Quantitative readout: 1.01
//
Construct sequence: TAGATGAGCA
Quantitative readout: 0.965
//
Construct sequence: TTGAGCTTAT
Quantitative readout: 0.993
//
Construct sequence: GGGGGGTAAC
Quantitative readout: 1
//
Construct sequence: TAGAGGCCGG
Quantitative readout: 1
//
Construct sequence: AAAATATAGA
Quantitative readout: 0.98
//
Construct sequence: GGGGTATTGC
Quantitative readout: 1
//
Construct sequence: GATTCGCGGC
Quantitative readout: 1.16
//
Construct sequence: GATGTCATTT
Quantitative readout: 0.987
//
Construct sequence: TCGAAAAATT
Quantitative readout: 0.975
//
Construct sequence: CGATTGGGGT
Quantitative readout: 1.02
//
Construct sequence: CAAGGGCCAG
Quantitative readout: 0.973

###

# Test system: ATP;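 also: ATP exposure 15 min at 22 °C before imaging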
# Assay overview: switch fluorescence ratio, 500 uM ATP over buffer (Cy3 cluster intensity, sum of 5 cycles each) (fold (ratio)); higher = stronger signal-on switching upon ATP binding; sequences stand for … in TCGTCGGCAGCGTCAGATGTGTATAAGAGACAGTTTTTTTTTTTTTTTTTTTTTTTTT…TC
# Protocol conditions: aptamer strand: ATP DNA aptamer (quencher-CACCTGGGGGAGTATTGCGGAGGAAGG + anchor), 100 nM annealed; ATP concentration: 500 uM
Measured endpoint: switch fluorescence ratio

Construct sequence: GTAGGGGGGA
Measured endpoint: switch fluorescence ratio
Quantitative readout: 0.987
--
Construct sequence: TGGGCGTTGC
Measured endpoint: switch fluorescence ratio
Quantitative readout: 1.01
--
Construct sequence: TCGTAATGAG
Measured endpoint: switch fluorescence ratio
Quantitative readout: 1.02
--
Construct sequence: ATGGAAATTG
Measured endpoint: switch fluorescence ratio
Quantitative readout: 0.954
--
Construct sequence: AGGGTCGGCT
Measured endpoint: switch fluorescence ratio
Quantitative readout: 0.993
--
Construct sequence: TTGTTACGGT
Measured endpoint: switch fluorescence ratio
Quantitative readout: 0.981
--
Construct sequence: GGTTTTTGCG
Measured endpoint: switch fluorescence ratio
Quantitative readout: 1.02
--
Construct sequence: GATGGTTTGT
Measured endpoint: switch fluorescence ratio
Quantitative readout: 0.988
--
Construct sequence: GTGGGACGAG
Measured endpoint: switch fluorescence ratio
Quantitative readout: 0.971
--
Construct sequence: ATGGTTTTGC
Measured endpoint: switch fluorescence ratio
Quantitative readout: 0.977
--
Construct sequence: CAAATACCTG
Measured endpoint: switch fluorescence ratio
Quantitative readout: 1.04
--
Construct sequence: ATGTCTTTGA
Measured endpoint: switch fluorescence ratio
Quantitative readout: 1.03
--
Construct sequence: GGTGTCTTAC
Measured endpoint: switch fluorescence ratio
Quantitative readout: 1.01
--
Construct sequence: GCAAGATTTC
Measured endpoint: switch fluorescence ratio
Quantitative readout: 1.04
--
Construct sequence: ACTCGGAGCG
Measured endpoint: switch fluorescence ratio
Quantitative readout: 1.01
--
Construct sequence: AGTGGGTGGG
Measured endpoint: switch fluorescence ratio
Quantitative readout: 0.992
--
Construct sequence: AGGGAAGCTT
Measured endpoint: switch fluorescence ratio
Quantitative readout: 0.972
--
Construct sequence: GCTGAAGGGT
Measured endpoint: switch fluorescence ratio
Quantitative readout: 1.01
--
Construct sequence: AAAGTCAAGG
Measured endpoint: switch fluorescence ratio
Quantitative readout: 0.993
--
Construct sequence: TAGGAATTTG
Measured endpoint: switch fluorescence ratio
Quantitative readout: 0.998
--
Construct sequence: GATTTGAAGG
Measured endpoint: switch fluorescence ratio
Quantitative readout: 1.01
--
Construct sequence: GAGAAAAGGG
Measured endpoint: switch fluorescence ratio
Quantitative readout: 1.04
--
Construct sequence: TTTCAAATCA
Measured endpoint: switch fluorescence ratio
Quantitative readout: 1.01
--
Construct sequence: GGGGACTAGT
Measured endpoint: switch fluorescence ratio
Quantitative readout: 0.957
--
Construct sequence: ATCATTGGG
Measured endpoint: switch fluorescence ratio
Quantitative readout: 1.01
--
Construct sequence: CGTGGATAGT
Measured endpoint: switch fluorescence ratio
Quantitative readout: 0.955
--
Construct sequence: ATATATGCTC
Measured endpoint: switch fluorescence ratio
Quantitative readout: 1.01
--
Construct sequence: CGAGGGATGT
Measured endpoint: switch fluorescence ratio
Quantitative readout: 0.982
--
Construct sequence: CGAGTTGATC
Measured endpoint: switch fluorescence ratio
Quantitative readout: 0.973
--
Construct sequence: CCATGAGTGT
Measured endpoint: switch fluorescence ratio
Quantitative readout: 0.997
--
Construct sequence: GATGTAGTGG
Measured endpoint: switch fluorescence ratio
Quantitative readout: 1.03
--
Construct sequence: GACTGTGAGA
Measured endpoint: switch fluorescence ratio
Quantitative readout: 1
--
Construct sequence: TATAATCCCT
Measured endpoint: switch fluorescence ratio
Quantitative readout: 1.02
--
Construct sequence: GGGAATTTTT
Measured endpoint: switch fluorescence ratio
Quantitative readout: 1
--
Construct sequence: GTTGTGGTTT
Measured endpoint: switch fluorescence ratio
Quantitative readout: 0.975
--
Construct sequence: TCTGATGGCT
Measured endpoint: switch fluorescence ratio
Quantitative readout: 1.04
--
Construct sequence: CAAGTGCTTA
Measured endpoint: switch fluorescence ratio
Quantitative readout: 0.958
--
Construct sequence: CGGGGGGTGC
Measured endpoint: switch fluorescence ratio
Quantitative readout: 1.01
--
Construct sequence: TGAGTTCGAA
Measured endpoint: switch fluorescence ratio
Quantitative readout: 1
--
Construct sequence: CTTAAATTAA
Measured endpoint: switch fluorescence ratio
Quantitative readout: 0.989
--
Construct sequence: TCGGTGTGCA
Measured endpoint: switch fluorescence ratio
Quantitative readout: 0.985
--
Construct sequence: GTCACTAGTG
Measured endpoint: switch fluorescence ratio
Quantitative readout: 1.03
--
Construct sequence: ATAATTAACG
Measured endpoint: switch fluorescence ratio
Quantitative readout: 0.986
